- Tested on: Mus musculus
- assay summary: Analgesic activity in Mus musculus (mouse) assessed as protection against acetic acid-induced writhing at 10 mg/kg, po administered 30 min prior challenge measured for 20 min
- Format: functional
In plain terms, low Activity, meaning strictly below 40%, gives criterion met, and everything else gives criterion not met.

1) O=C(NN1C(=O)/C(=C/c2ccc(Cl)cc2)SC1c1ccc(F)cc1)c1ccc(-c2ccccc2)cc1 (stereo not drawn)
criterion not met
2) O=C([O-])Cc1ccccc1Nc1c(Cl)cccc1Cl.[Na+] [DICLOFENAC SODIUM]
criterion not met
3) COc1ccc(/C=C2\SC(c3ccc(F)cc3)N(NC(=O)c3ccc(-c4ccccc4)cc3)C2=O)cc1 (stereo not drawn)
criterion met
4) O=C(NN1C(=O)/C(=C/c2ccc(Cl)cc2)SC1c1ccc(Cl)cc1)c1ccc(-c2ccccc2)cc1 (stereo not drawn)
criterion met
5) COc1ccc(C2S/C(=C\c3ccc(Cl)cc3)C(=O)N2NC(=O)c2ccc(-c3ccccc3)cc2)cc1 (stereo not drawn)
criterion met
6) O=C(NN1C(=O)/C(=C/c2ccc(Cl)cc2)SC1c1cccc([N+](=O)[O-])c1)c1ccc(-c2ccccc2)cc1 (stereo not drawn)
criterion not met
7) O=C(NN1C(=O)/C(=C/c2cccc(Br)c2)SC1c1ccc(F)cc1)c1ccc(-c2ccccc2)cc1 (stereo not drawn)
criterion met

These measurements were taken from ChEMBL document CHEMBL3045537.
